Data credit: ChEMBL document CHEMBL4138122

protocol: Oral bioavailability in rat at 3 mg/kg
Format: ADME, organism-based
condition.description: in vivo
assay.readout: bioavailability (%)
# output: bare number, implied unit %

Q) // returns reported bioavailability for input O=C(O)CC1C2CCCC1CN(Cc1ccc3c(c1)Nc1nccnc1S3)C2 (stereo in doubt; 64c)
A) 98.5

* * *

protocol: Inhibition of soybean 15-lipoxygenase
Parameters: species or system Glycine max
pIC50: −log10 of the molar value.
Property: pIC50; scope: individual molecules

Some solved cases for reference:
smiles.text	result
c1ccc2c(c1)Nc1nnc(N3CCOCC3)cc1S2	< 3.54
CN1CCN(c2cc3c(nn2)Nc2ccccc2S3)CC1	< 3.54
c1ccc2c(c1)Nc1nnc(N3CCCC3)cc1S2	< 3.54

For the next question, use this molecule.
Q) Consider the molecule shown here: `c1ccc2c(c1)Nc1nnc(N3CCCCC3)cc1S2` What is its recorded pIC50?
A) < 3.54

* * *

System: Bacillus cereus
protocol: Antibacterial activity against Bacillus cereus
Format: functional, organism-based
Please note: MIC exactly at 70 µg/mL is NO. Only values below 70 µg/mL get YES.

Answered examples (5):
smiles.text	target.of.assay	category.label
Cc1ncc2c(n1)N=c1c(c3c(c4ccccc14)=Nc1cc([N+](=O)[O-])ccc1O3)S2	Bacillus cereus	NO
O=C(O)c1cn(C2CC2)c2c3c(c(F)cc2c1=O)Sc1ccccc1N3	Bacillus cereus	YES
COc1ccc2c(n1)Sc1c3c(c4ccccc4c1=N2)=Nc1c(N)ncnc1O3	Bacillus cereus	NO
COc1ccc2c(n1)Sc1c3c(c4ccccc4c1=N2)=Nc1cc([N+](=O)[O-])ccc1O3	Bacillus cereus	NO
Oc1ncnc2c1N=c1c(c3c(c4ccccc14)=Nc1ccccc1S3)O2	Bacillus cereus	YES

Query molecule follows.
Q) Answer whether the molecule `Cc1ccc2c(c1)Sc1c(F)cc3c(=O)c(C(=O)O)cn(C4CC4)c3c1N2` has MIC strictly less than 70 µg/mL
A) YES

* * *

target.of.assay: UniProt:P81908
Sequence (P81908 whole entry): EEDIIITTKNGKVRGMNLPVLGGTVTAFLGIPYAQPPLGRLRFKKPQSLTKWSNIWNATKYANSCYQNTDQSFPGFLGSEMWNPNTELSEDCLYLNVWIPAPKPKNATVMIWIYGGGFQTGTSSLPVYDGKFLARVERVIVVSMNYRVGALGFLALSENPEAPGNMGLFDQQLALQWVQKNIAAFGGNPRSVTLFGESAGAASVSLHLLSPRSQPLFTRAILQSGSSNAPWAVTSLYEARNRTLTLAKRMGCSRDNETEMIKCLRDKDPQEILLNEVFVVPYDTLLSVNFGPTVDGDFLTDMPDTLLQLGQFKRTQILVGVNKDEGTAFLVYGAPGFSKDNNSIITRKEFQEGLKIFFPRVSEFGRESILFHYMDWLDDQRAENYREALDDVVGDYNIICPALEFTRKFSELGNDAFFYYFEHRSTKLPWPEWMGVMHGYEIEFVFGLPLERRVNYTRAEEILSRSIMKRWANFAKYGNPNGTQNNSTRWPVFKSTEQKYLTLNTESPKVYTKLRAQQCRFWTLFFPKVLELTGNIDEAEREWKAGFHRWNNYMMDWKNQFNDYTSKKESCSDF
protocol: Inhibition of horse serum BChE
assay.readout: IC50 (nM)
# value in nM; strip the unit string

Some solved entries appear below for comparison.
compound	target.of.assay	IC50 (nM)
CN1CCCCC1CCN1c2ccc(Cl)cc2Sc2cc3ccccc3nc21 (centres undefined)	UniProt:P81908	122
CN1CCCCC1CCN1c2nc3ccccc3cc2Sc2cc3ccccc3nc21 (centres undefined)	UniProt:P81908	11.8
CSc1ccc2c(c1)Sc1cc3ccccc3nc1N2CCC1CCCCN1C (centres undefined)	UniProt:P81908	24.4

Q) Lookup: IC50 / UniProt:P81908 / `O=C(NCCCl)NCCCN1c2nc3ccccc3cc2Sc2cc3ccccc3nc21`
A) 2900

* * *

Tested on: T47D
protocol: Cytotoxicity against human T47D cells
Assay type: functional, cell-based
assay.readout: IC50

Some compounds with recorded IC50:
smiles.text	target.of.assay	result
C[n+]1cc2c(c3ccccc31)Nc1cc(OCCN3CCOCC3)ccc1S2.[Cl-]	T47D	≤ 3 µg/mL
CCN(C)CC#CCN1c2cnccc2Sc2cccnc21	T47D	26.1 to 27.5 µg/mL
C[n+]1cc2c(c3ccccc31)Nc1cc(OCCN3CCCC3)ccc1S2.[Cl-]	T47D	≤ 3 µg/mL
CN(C)CCCOc1ccc2c(c1)Nc1c(c[n+](C)c3ccccc13)S2.[Cl-]	T47D	≤ 3 µg/mL
C[n+]1cc2c(c3ccccc31)Nc1cc(OCCN3CCCCC3)ccc1S2.[Cl-]	T47D	≤ 3 µg/mL

Could you now consider this next compound?
Q) Could you share what IC50 was measured for `CCN(CC)CC#CCN1c2cnccc2Sc2cccnc21` , tested on T47D?
A) 26.1 to 27.5 µg/mL

* * *

Measured inhibition in vivo at 10 mg/kg by item
System: Mus musculus
protocol: Anti-inflammatory activity in IL1-induced paw inflammation Balb/c mouse model assessed as inhibition of neutrophil migration at 10 mg/kg, po, pretreated for 30 mins followed by IL1 challenge measured after 2 hrs by spectrophotometric method
Type: functional

smiles.text	inhibition in vivo at 10 mg/kg
CS(=O)(=O)NCCC1CCN(Cc2ccc3c(c2)Nc2nccnc2S3)CC1	83.4 to 89.7%
CS(=O)(=O)NC1CCN(Cc2ccc3c(c2)Nc2nccnc2S3)CC1	83.4 to 89.7%

Kindly review the next compound as well.
Q) Reported inhibition in vivo at 10 mg/kg for `CN(C)S(=O)(=O)NC1CCN(Cc2ccc3c(c2)Nc2nccnc2S3)CC1` : what is it?
A) 83.4 to 89.7%
